B1: WEE1 (parent)
chain: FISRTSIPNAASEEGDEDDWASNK

Variants of: B1
TEST_SUMMARY: protein stability index of a GFP-peptide fusion (GPS, HEK-293T) (PSI 1-6); higher = more stable;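 also: lentivirally expressed fusions sorted by FACS into six bins by GFP to DsRed ratio, PSI derived from sequencing read proportions per bin multiplied by bin number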
ASSAY_CONDITIONS: c terminus: a fixed tail appended
PROPERTY: protein stability index
Give only the figure.

Examples with answers:
{"CHANGE": "T5E", "QUANTITATIVE_RESULT": 4.85}
{"CHANGE": "E13I", "QUANTITATIVE_RESULT": 3.03}
{"CHANGE": "T5R", "QUANTITATIVE_RESULT": 3.77}

# ---- query variant ----
Per the records, this variant ( G15V ) has protein stability index equal to 4.46
